System: VchCAST RNA-guided transposition machinery (E. coli BL21(DE3) host, lacZ target)
Test: relative integration efficiency (T-LR orientation) vs wild-type transposon end (log2 (normalized fold change)); transposon end mutated: left end; higher = more efficient transposition
QUANTITY NAME: relative integration efficiency (log2)

SEQUENCE CODE	QUANTITY NAME	MEASURED NUMBER
AATGTTGTTGATGCAACCATAAAATGATAATTAATAATTATTTATAATCAGCAACTTAACCACAAAACAACCATAAAATGATAATTAACAAAATAATTATCATTTTATGGTTGTGTGAATCGAGTATTTCAGCAAAACTACTGCAGTAAGAA	relative integration efficiency (log2)	0.0912
AATGTTGTTGATGCAACCATAAAGTGATATTTAATAATTATTTATAATCAGCAACTTAACCACAAAACAACCATATATTGAGCGAGACACCCCACCAACGCCTGGTCGCGGGGGTGTCCGATCTGATTTCAGCAAAACTACTGCAGTAAGAA	relative integration efficiency (log2)	-2.37

---

In this section we review reported relative integration efficiency (log2) values for a set of sequences.
Tested on: VchCAST RNA-guided transposition machinery (E. coli BL21(DE3) host, lacZ target)
Test: relative integration efficiency (T-RL orientation) vs wild-type transposon end (log2 (normalized fold change)); transposon end mutated: right end (5 bp flank + 75 bp right end); higher = more efficient transposition

SEQUENCE CODE	relative integration efficiency (log2)
ACATTTGTTGATACAACCATAAAATGATCATTACCCCCATAAATTGATAATTATCCCACCCCATTTAACTATAACGCTCTGATCATAGTCAGACCAACATTGCTACGACCCGTATTCGCACCGACAC	-1.91
ACATTTGTTGATACAACCATAAAATGATAATTACACCCATAATTTGATAATTACCACTCCCAATTTAACTATAACGCTCTGATCATAGTCAGACCAACATTGCTACGACCCGTATTCGCACCGACAC	-1.09
ACATTTGTTGATACAACCATAAAGTGATATTTACAACCATATATTGATATCTCTCAGTGGGTATTTAACTATAACGCTCTGATCATAGTCAGACCAACATTGCTACGACCCGTATTCGCACCGACAC	-1.32
ACATTTGTTGATACAACCATTAAATGGTAATTCCACCCAAAAATTGATAATTATCACACCCAATTTAACTATAACGCTCTGATCATAGTCAGACCAACATTGCTACGACCCGTATTCGCACCGACAC	-2.14
ACATTTGTTGATTGTTCCATAAAATGATAATTACACCCATAAATTGATAATTATCACACCCATAAATTGATATTGCCTCTGATCATAGTCAGACCAACATTGCTACGACCCGTATTCGCACCGACAC	-1.3

---

Tested on: VchCAST RNA-guided transposition machinery (E. coli BL21(DE3) host, lacZ target)
Assay: relative integration efficiency (T-LR orientation) vs wild-type transposon end (log2 (normalized fold change)); transposon end mutated: right end (5 bp flank + 75 bp right end); higher = more efficient transposition
In this section we review reported relative integration efficiency (log2) values for a set of sequences.
QUANTITY NAME: relative integration efficiency (log2)

SEQUENCE CODE	MEASURED NUMBER
ACATTTGTTGATACACCCATAAATTGATATTGCCAACCATAAGTTGATATTTTTCACACCCATAAATTGATAATTACTCTGATCATAGTCAGACCAACATTGCTACGACCCGTATTCGCACCGACAC	0.0375
ACATTTGTGGATACAACCATAAAATGATAATTACACCCATAAATGGATAATTATCACCCCCAATTTAACTATAACGCTCTGATCATAGTCAGACCAACATTGCTACGACCCGTATTCGCACCGACAC	1.55
ACATTTGTTGATACAACCATAAAGTGATATTTACACCCATAAATTGATAATTATCACAACCATATATTGATATCTCCTCTGATCATAGTCAGACCAACATTGCTACGACCCGTATTCGCACCGACAC	-0.0754
ACATTTGTTGATACAACCATAAAAACATAATTACACCCATAAATTGATAATTATCACACCCATAAATTGATATTGCCTCTGATCATAGTCAGACCAACATTGCTACGACCCGTATTCGCACCGACAC	-1.06
ACATTTGTTGATACAACCATAAAATCATCATTACCCCCATAAATTGATAATTATCCCACCCAATTTAACTATAACGCTCTGATCATAGTCAGACCAACATTGCTACGACCCGTATTCGCACCGACAC	0.215

---

Test system: VchCAST RNA-guided transposition machinery (E. coli BL21(DE3) host, lacZ target)
Experiment: relative integration efficiency (T-RL orientation) vs wild-type transposon end (log2 (normalized fold change)); transposon end mutated: left end; higher = more efficient transposition
QUANTITY NAME: relative integration efficiency (log2)

SEQUENCE CODE	ASSAY SYSTEM	QUANTITY NAME	MEASURED NUMBER
AATGTTGTTGATGCAACCATAAAGTGATATTTACAACCATAAAGTGATATTTAACTTAACCACAAAACAACCATATATTGATATCTCACAAAACAACCATAAGTTGATATTTTTGTGAATCGAGTATTTCAGCAAAACTACTGCAGTAAGAA	VchCAST RNA-guided transposition machinery (E. coli BL21(DE3) host, lacZ target)	relative integration efficiency (log2)	-3.13
AATGTTGTTGATGCAACCATAAAGTGATATTTAATAATTATTTATAATCAGCAACCATATATTGATATCTCCAACTTAACCACAAAAACAAAACAACCATAAGTTGATATTTTTGTGAATCGAGTATTTCAGCAAAACTACTGCAGTAAGAA	VchCAST RNA-guided transposition machinery (E. coli BL21(DE3) host, lacZ target)	relative integration efficiency (log2)	-6.03
AATGTTGTTGATGCAACCATAAAGTGATATTTAATAATTATTTATCAACCATAAAGTGATATTTAACCAACCATATATTGATATCTCACAAAACAACCATAAGTTGATATTTTTGTGAATCGAGTATTTCAGCAAAACTACTGCAGTAAGAA	VchCAST RNA-guided transposition machinery (E. coli BL21(DE3) host, lacZ target)	relative integration efficiency (log2)	-6.32
AATGTTGTTGATGCAACCATAAAGTGATATTTAATAATTATTTATAATCAGCAACTTAACCACAAAACACAACGCGCGGTCGCGAGACACCCCACCAACGCCTGGTCGCGGGGGTGTCCGATCTGATTTCAGCAAAACTACTGCAGTAAGAA	VchCAST RNA-guided transposition machinery (E. coli BL21(DE3) host, lacZ target)	relative integration efficiency (log2)	-6.99
AATGTTGTTGATGCAACCATAAAGTGATATTTAATAATTATTTATAATCAGCAACTTAACCACAAAACACCCATAAATTGATATTGCACAAAAGTTGGTATTCAACTATAAAATGTGAATCGAGTATTTCAGCAAAACTACTGCAGTAAGAA	VchCAST RNA-guided transposition machinery (E. coli BL21(DE3) host, lacZ target)	relative integration efficiency (log2)	-3.12
AATGTTGTTGATGCAACCATAAAATGATAATTAATAATTATTTATAATCAGCAACTTAACCACAAAACAACCATAAAATGATAATTAACAAAAGTTGGTATTCAACTATAAAATGTGAATCGAGTATTTCAGCAAAACTACTGCAGTAAGAA	VchCAST RNA-guided transposition machinery (E. coli BL21(DE3) host, lacZ target)	relative integration efficiency (log2)	-2.57
AATGTTGTTGATGCAACCATAAAGTGATATTTAAGTACTGCGCGTCTGAAGTCATCTTTAAACCGAACAACCATATATTGATATCTCACAAAACAACCATAAGTTGATATTTTTGTGAATCGAGTATTTCAGCAAAACTACTGCAGTAAGAA	VchCAST RNA-guided transposition machinery (E. coli BL21(DE3) host, lacZ target)	relative integration efficiency (log2)	-3.55
AATGTTGTTGATGCAACCATAAAGTGATATTTAATAATTATTTATAATCAGCAACTTAACCACAAAACAACCATATATTGATATCTCACAAAAGTTGGTATTCAACTATAAAATGTGAATCGAGTATTTCAGCAAAACTACTGCAGTAAGAA	VchCAST RNA-guided transposition machinery (E. coli BL21(DE3) host, lacZ target)	relative integration efficiency (log2)	-2.5
AATGTTGTTGATGCAACCATAAAATGATAATTAATAATTATTTATAATCAGCAACTTAACCACAAAATAATTATCATTTTATGGTTGACAAAATAATTATCATTTTATGGTTGTGTGAATCGAGTATTTCAGCAAAACTACTGCAGTAAGAA	VchCAST RNA-guided transposition machinery (E. coli BL21(DE3) host, lacZ target)	relative integration efficiency (log2)	-6.03
